# Tested on: Conscious guinea pigs exposed to an aerosol of methacholine
# experiment.description: Methacholine aerosol collapse time in conscious guinea pigs (anticholinergic test)
# Type: in vivo
# condition.summary: collapse time; 25 mg/kg intraperitoneally; 10 minutes methacholine aerosol; Control 1.9 to 2.0
# Description: Conscious guinea pigs, six at a time, are put into a sealed chamber and exposed for 10 minutes to an aerosol of methacholine.
The molecules listed here are annotated with their (Minutes Protection).
assay.readout: (Minutes Protection) (min)

Cc1cc2oc(=O)c3c(c2cc1[N+](=O)[O-])CCN(CCN1CC2CCC(CC2)C1)C3 [R1=NO2, R2=Me, R3=H, X=drawing 10] : 1.9
O=c1oc2ccccc2c2c1CN(CCN1CC3CCC(CC3)C1)CC2 [R1=H, R2=H, R3=H, X=drawing 10] : 5.2
Cc1cc2oc(=O)c3c(c2cc1Cl)CCN(CCN1CC2CCC(CC2)C1)C3 [R1=Cl, R2=Me, R3=H, X=drawing 10] : 2.1
COc1cc2oc(=O)c3c(c2cc1OC)CCN(CCN1CC2CCCC(C2)C1)C3 [R1=MeO, R2=MeO, R3=H, X=drawing 12] : 6.6
Cc1ccc2c3c(c(=O)oc2c1)CN(CCN1CC2CCC1CC2)CC3 [R1=H, R2=Me, R3=H, X=drawing 11] : 2.3
Cc1ccc2c3c(c(=O)oc2c1)CN(CCN1CC2CCC(CC2)C1)CC3 [R1=H, R2=Me, R3=H, X=drawing 10] : 5.0
CCc1ccc2c3c(c(=O)oc2c1)CN(CCN1CC2CCC(CC2)C1)CC3.Cl.Cl [R1=H, R2=Et, R3=H, X=drawing 10] : 6.8
